Record set of Ki for target or system Beta-secretase 1 (Homo sapiens).
# output: bare number, implied unit nM

Would you please look over these solved cases?
>  <chemicalSmiles>
CCCN(CCC)C(=O)c1cccc(C(=O)N[C@@H](COc2cc(F)cc(F)c2)[C@@H](O)C[C@@H](OC)C(=O)NC2CC2)c1

>  <reportedEndpoint>
Ki

>  <numericValue>
220

$$$$
>  <chemicalSmiles>
CO[C@H](C[C@H](O)[C@H](COc1cc(F)cc(F)c1)NC(=O)c1cc(C(=O)N[C@H](C)c2ccccc2)cc(N(C)CS(C)(=O)=O)c1)C(=O)NCc1ccccc1

>  <reportedEndpoint>
Ki

>  <numericValue>
1400

$$$$
>  <chemicalSmiles>
CO[C@H](C[C@H](O)[C@H](COc1cc(F)cc(F)c1)NC(=O)c1cc(C(=O)N[C@H](C)c2ccccc2)cc(N(C)CS(C)(=O)=O)c1)C(=O)Nc1ccc(F)cc1

>  <reportedEndpoint>
Ki

>  <numericValue>
100

$$$$

Reported Ki for CO[C@H](C[C@H](O)[C@H](COc1cc(F)cc(F)c1)NC(=O)c1cc(C(=O)N[C@H](C)c2ccccc2)cc(N(C)CS(C)(=O)=O)c1)C(=O)NC1CC1 : what is it?
1800

Data provenance: ChEMBL document CHEMBL1157542
